TGI values by entry
# Tested on: SNB-19 CNS
# ASSAY_SUMMARY: NCI tumour cell line growth inhibition, 48 h
Where a SMILES comes first, the peptide text is derived from it. Side-chain parts run from the residue outwards. The star is where a group is joined. Cbz = O=C(OCc1ccccc1)*; Boc = CC(C)(C)OC(=O)*
ASSAY_METRIC: TGI

[
  {
    "COMPOUND": "O=C(c1ccccc1O)c1cc(-c2ncc3c(=O)c4ccccc4oc3n2)c(-c2ccccc2O)[nH]c1=O",
    "RESULT": "> 87.5 µM"
  },
  {
    "COMPOUND": "C=C1CCC2C(C)(CO)C(O)CCC2(C)C1C/C=C1/CCOC1=O (stereo not drawn)",
    "RESULT": "> 100 µM"
  },
  {
    "COMPOUND": "OC(C1CCCCCCCCCC1)C(O)C1CCCCCCCCCC1 (stereo not drawn)",
    "RESULT": "> 100 µM"
  },
  {
    "COMPOUND": "CC(=O)N1C(Nc2cccc3nc(C)ccc23)CCN1c1ccccc1 (stereo not drawn)",
    "RESULT": "> 10 µM"
  },
  {
    "COMPOUND": "N#Cc1cc([N+](=O)[O-])ccc1NC(=O)C(=O)C(C(=O)c1ccc2ccccc2c1)C1OCc2ccccc21 (stereo not drawn)",
    "RESULT": "21.1 µM"
  },
  {
    "COMPOUND": "CC(C)(C)OC(=O)NC(CCCCNC(=O)CNC(=O)OCc1ccccc1)C(=O)NC(CCCCNC(=O)CNC(=O)OCc1ccccc1)C(=O)NC(CCCCNC(=O)CNC(=O)OCc1ccccc1)C(=O)NC(CCCCNC(=O)CNC(=O)OCc1ccccc1)C(=O)O (stereo not drawn) (Boc-K([Gly-Cbz])K([Gly-Cbz])K([Gly-Cbz])K([Gly-Cbz])-OH; configuration not given here)",
    "RESULT": "> 100 µM"
  },
  {
    "COMPOUND": "COc1cccc([C@@H]2CC(=O)c3cc4c(cc3N2)OCO4)c1",
    "RESULT": "> 100 µM"
  },
  {
    "COMPOUND": "CC(C)C1=C(Cc2ccccc2)C(=O)O/C1=C\\c1ccc(O)c(Cl)c1",
    "RESULT": "33.7 µM"
  }
]
